Taken from patent US10829473B2.

target.under.test: F508delCFTR (Homo sapiens, UniProt P13569, DEL508-508)
Construct: expressed in transfected cells; host or cells: CFBE41o- human lung derived epithelial cells (CFBE41o-F508delCFTR-HRP), doxycycline-inducible
Sequence (P13569 with tags, fused parts or gaps DEL508-508): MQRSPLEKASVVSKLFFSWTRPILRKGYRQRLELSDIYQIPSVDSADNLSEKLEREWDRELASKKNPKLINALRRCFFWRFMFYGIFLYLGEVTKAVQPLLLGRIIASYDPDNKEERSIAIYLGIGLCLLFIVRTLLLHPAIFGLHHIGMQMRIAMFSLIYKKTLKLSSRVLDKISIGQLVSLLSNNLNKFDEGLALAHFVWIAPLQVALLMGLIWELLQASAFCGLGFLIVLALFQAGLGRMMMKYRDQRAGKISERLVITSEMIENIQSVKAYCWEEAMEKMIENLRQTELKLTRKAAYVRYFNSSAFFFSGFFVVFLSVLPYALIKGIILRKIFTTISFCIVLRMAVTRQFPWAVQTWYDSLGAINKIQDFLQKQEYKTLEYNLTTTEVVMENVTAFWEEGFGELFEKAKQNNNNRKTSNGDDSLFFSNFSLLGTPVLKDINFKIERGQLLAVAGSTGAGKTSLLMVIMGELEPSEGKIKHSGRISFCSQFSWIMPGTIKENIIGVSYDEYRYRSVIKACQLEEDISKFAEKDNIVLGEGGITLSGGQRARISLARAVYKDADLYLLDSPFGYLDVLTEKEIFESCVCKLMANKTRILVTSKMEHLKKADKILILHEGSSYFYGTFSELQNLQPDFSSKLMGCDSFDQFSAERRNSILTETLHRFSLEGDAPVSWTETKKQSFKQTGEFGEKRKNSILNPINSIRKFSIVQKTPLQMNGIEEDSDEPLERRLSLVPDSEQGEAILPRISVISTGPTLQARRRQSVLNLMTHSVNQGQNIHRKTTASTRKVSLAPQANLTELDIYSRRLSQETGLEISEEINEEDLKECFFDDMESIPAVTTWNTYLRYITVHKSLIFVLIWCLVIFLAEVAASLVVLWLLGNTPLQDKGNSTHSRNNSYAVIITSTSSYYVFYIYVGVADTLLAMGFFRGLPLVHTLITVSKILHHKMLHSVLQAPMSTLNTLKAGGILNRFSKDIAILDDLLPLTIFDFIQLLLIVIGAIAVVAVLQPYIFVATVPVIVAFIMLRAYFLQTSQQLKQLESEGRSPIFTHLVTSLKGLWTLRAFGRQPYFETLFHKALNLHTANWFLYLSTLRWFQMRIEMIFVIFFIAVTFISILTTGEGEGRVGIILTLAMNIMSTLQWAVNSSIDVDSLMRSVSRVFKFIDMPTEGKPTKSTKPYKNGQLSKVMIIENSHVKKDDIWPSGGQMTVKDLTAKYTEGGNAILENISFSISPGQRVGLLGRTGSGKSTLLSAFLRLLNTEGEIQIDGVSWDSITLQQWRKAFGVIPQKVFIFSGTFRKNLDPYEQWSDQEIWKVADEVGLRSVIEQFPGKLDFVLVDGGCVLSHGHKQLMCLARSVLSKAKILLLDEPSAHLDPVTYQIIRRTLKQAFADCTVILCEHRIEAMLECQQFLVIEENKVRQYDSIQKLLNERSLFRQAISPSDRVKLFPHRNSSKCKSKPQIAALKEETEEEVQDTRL
procedure.details: Cell Surface Expression-Horse Radish Peroxidase (CSE-HRP) Assay;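 as to EC50 (with co-corrector): co-corrector chromenyl benzoic acid corrector at 2 or 3 µM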
Format: cell-based
measurement.setup: with co-corrector; read-out: EC50 (with co-corrector)
pEC50: −log10 of the molar value.
In this section, each of the molecules is paired with its reported pEC50.
experimental.endpoint: pEC50

INSERT INTO results (molecule, result) VALUES
  ('O=C(NS(=O)(=O)c1ccc(OC(F)(F)F)cc1)C1(c2ccc(Cl)cc2Cl)CC1 [Example III-14]', '< 5.00'),
  ('CCOc1ccc(C)cc1C1(C(=O)NS(=O)(=O)c2cccc3nc(NC)ccc23)CC1 [II-84]', '> 5.52'),
  ('COc1ccc(C)c(OC)c1C1(C(=O)NS(=O)(=O)c2cccc3ccccc23)CC1 [Example I-40]', '> 5.52'),
  ('O=C(NS(=O)(=O)c1ccc(Br)s1)C1(c2ccc(Cl)cc2Cl)CC1 [Example III-63]', '5.00 to 5.52'),
  ('O=C(NS(=O)(=O)c1ccccc1Cl)C1(c2cccc(Cl)c2)CC1 [Example III-23]', '5.00 to 5.52'),
  ('O=C(NS(=O)(=O)Cc1ccccc1)C1(c2ccc(Cl)cc2)CC1 [Example III-114]', '5.00 to 5.52'),
  ('COc1ccc(C23CC(C2)C3)cc1C1(C(=O)NS(=O)(=O)c2cccc3c2CCCN3)CC1 [Example III-101]', '> 5.52');

---

target.under.test: F508delCFTR (Homo sapiens, UniProt P13569, DEL508-508)
Construct: expressed in transfected cells; host or cells: CFBE41o- human lung derived epithelial cells (CFBE41o-F508delCFTR-HRP), doxycycline-inducible
procedure.details: Cell Surface Expression-Horse Radish Peroxidase (CSE-HRP) Assay
Assay type: cell-based
measurement.setup: test compound alone, without co-corrector; read-out: EC50 (without co-corrector)
pEC50: −log10 of the molar value.
experimental.endpoint: pEC50

INSERT INTO results (compound, result) VALUES
  ('COc1ccc(C)nc1C1(C(=O)NS(=O)(=O)c2cccc3ncccc23)CC1 [Example III-124]', '5.00 to 5.52'),
  ('O=C(NS(=O)(=O)c1cccc2ncccc12)C1(c2cc(OC(F)(F)F)ccc2Cl)CC1 [II-24]', '> 5.52'),
  ('CCOC(C)(C)c1ccc(OC(F)F)c(C2(C(=O)NS(=O)(=O)c3cccc4nc(C)ccc34)CC2)c1 [II-107]', '> 5.52'),
  ('O=C(NS(=O)(=O)c1ccccc1)C1(c2ccc(Cl)cc2Cl)CC1 [Example III-3]', '5.00 to 5.52'),
  ('COc1ccc(OC)c(C2(C(=O)NS(=O)(=O)c3cccc4ccccc34)CC2)c1 [Example I-28]', '> 5.52'),
  ('COc1ccc(C)nc1C1(C(=O)NS(=O)(=O)c2cccc3nc(C)ccc23)CC1 [Example III-126]', '> 5.52'),
  ('O=C(NS(=O)(=O)Cc1ccccc1)C1(c2ccccc2Cl)CC1 [Example III-113]', '< 5.00'),
  ('Cc1ccc(O[C@H]2CCOC2)c(C2(C(=O)NS(=O)(=O)c3cccc4ncccc34)CC2)c1 [II-117]', '5.00 to 5.52'),
  ('O=C(NS(=O)(=O)c1ccc(Cl)cc1)C1(c2cccc(Cl)c2)CC1 [Example III-10]', '< 5.00'),
  ('COc1ccc(C(C)OC)cc1C1(C(=O)NS(=O)(=O)c2cccc3ncccc23)CC1 (stereo not shown) [II-87]', '5.00 to 5.52'),
  ('O=C(NS(=O)(=O)c1cccc2ncccc12)C1(c2ccc(C(F)(F)F)nc2N2CCCC2)CC1 [Example GI-15]', '> 5.52'),
  ('CC(C)Oc1cnc(C2CCC2)cc1C1(C(=O)NS(=O)(=O)c2cccc3[nH]ccc23)CC1 [Example GI-27]', '5.00 to 5.52'),
  ('COc1cc(C2(C(=O)NS(=O)(=O)c3cccc4ncccc34)CC2)c(OC(C)C)cn1 [Example GI-16]', '5.00 to 5.52'),
  ('CC(=O)N1CCc2cc(S(=O)(=O)NC(=O)C3(c4cccc(Cl)c4)CC3)ccc21 [Example III-76]', '< 5.00'),
  ('COc1ccc(OC(F)F)cc1C1(C(=O)NS(=O)(=O)c2cccc3ncccc23)CC1 [Example I-65]', '5.00 to 5.52'),
  ('O=C(NS(=O)(=O)c1ccccc1)C1(c2ccc(F)cc2)CC1 [Example III-31]', '< 5.00'),
  ('CCc1ccc(OC)c(C2(C(=O)NS(=O)(=O)c3cccc4[nH]ncc34)CC2)c1 [II-72]', '> 5.52'),
  ('Cc1ccc(C)c(C2(C(=O)NS(=O)(=O)c3cccc4[nH]ncc34)CC2)c1 [Example III-127]', '5.00 to 5.52'),
  ('COCC(C)(C)c1ccc(OC)c(C2(C(=O)NS(=O)(=O)c3cccc4nc(C)ccc34)CC2)c1 [II-113]', '> 5.52'),
  ('CC(C)c1nc(C(F)(F)F)ccc1C1(C(=O)NS(=O)(=O)c2cccc3c2CCCN3)CC1 [Example GI-9]', '> 5.52'),
  ('O=C(NS(=O)(=O)c1ccccc1)C1(c2ccc(Cl)cc2)CC1 [Example III-33]', '5.00 to 5.52'),
  ('COc1ccc(C2CC2)c(C)c1C1(C(=O)NS(=O)(=O)c2cccc3nc(C)ccc23)CC1 [II-52]', '> 5.52'),
  ('CCOc1ccc(C)cc1C1(C(=O)NS(=O)(=O)c2cccc3nc(N(C)C)ccc23)CC1 [Example III-134]', '> 5.52'),
  ('Cc1ccc(S(=O)(=O)NC(=O)C2(c3cccc(Cl)c3)CC2)cc1C [Example III-74]', '< 5.00'),
  ('O=C(NS(=O)(=O)C1CCS(=O)(=O)C1)C1(c2ccc(Cl)cc2Cl)CC1 (stereo not shown) [Example III-36]', '< 5.00');
